- experimental_target: acyl-CoA synthetase 4 (Acsl4) (Rattus norvegicus, UniProt O35547)
- Sequence (O35547 whole entry): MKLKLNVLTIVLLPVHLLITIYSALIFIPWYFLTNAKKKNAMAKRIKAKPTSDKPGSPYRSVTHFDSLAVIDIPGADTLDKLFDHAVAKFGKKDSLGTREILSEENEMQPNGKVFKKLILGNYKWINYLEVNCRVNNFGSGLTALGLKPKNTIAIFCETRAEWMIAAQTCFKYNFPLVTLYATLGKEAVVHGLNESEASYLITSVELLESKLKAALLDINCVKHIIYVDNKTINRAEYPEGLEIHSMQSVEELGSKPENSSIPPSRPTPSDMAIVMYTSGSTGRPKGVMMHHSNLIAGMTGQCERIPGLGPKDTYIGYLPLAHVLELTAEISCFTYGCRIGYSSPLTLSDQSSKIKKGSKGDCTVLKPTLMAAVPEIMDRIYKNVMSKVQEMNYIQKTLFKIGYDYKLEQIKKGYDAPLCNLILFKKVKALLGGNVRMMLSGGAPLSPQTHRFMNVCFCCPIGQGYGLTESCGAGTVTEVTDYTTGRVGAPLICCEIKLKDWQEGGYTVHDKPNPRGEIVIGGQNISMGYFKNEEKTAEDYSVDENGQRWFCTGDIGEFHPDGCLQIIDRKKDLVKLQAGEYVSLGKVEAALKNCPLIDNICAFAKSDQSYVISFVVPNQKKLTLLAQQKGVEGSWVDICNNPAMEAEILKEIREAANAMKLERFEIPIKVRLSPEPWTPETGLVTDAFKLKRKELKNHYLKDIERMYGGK
reported_endpoint: pKi
Conceptually, pKi converts a concentration in mol/L into minus its log10.

// returns pKi for CCCC(C(=O)O)C(C)C (racemic) [PIA, 2-isopropylpentanoic acid] with acyl-CoA synthetase 4 (Acsl4) (Rattus norvegicus, UniProt O35547); value = 1.94
